The reported numbers originate from patent US11472778B2.

Measured Target: GT1a D168A NS3/4A protease
Format: biochemical, Hepatitis C virus
Run Conditions: fold change in Ki, D168A relative to WT
Endpoint Label: Ki D168A (fold change)
Answers are plain numbers.

Answered examples (8):
C=C[C@@H]1C[C@]1(NC(=O)[C@@H]1C[C@@H](Oc2nc3cc(OC)ccc3nc2C(F)(F)F)CN1C(=O)[C@@H](NC(=O)OC(C)(C)C)C(C)(C)C)C(=O)NS(=O)(=O)C1(C)CC1 [Compound 10e] ... 11
C=C[C@@H]1C[C@]1(NC(=O)[C@@H]1C[C@@H](Oc2nc3cc(OC)ccc3nc2CC)CN1C(=O)[C@@H](NC(=O)OC(C)(C)C)C(C)(C)C)C(=O)NS(=O)(=O)C1CC1 ... 34
CCc1nc2ccc(OC)cc2nc1O[C@@H]1C[C@H]2C(=O)N[C@]3(C(=O)NS(=O)(=O)C4CC4)C[C@H]3/C=C\CCCCC[C@H](NC(=O)OC(C)(C)C)C(=O)N2C1 ... 46
C=C[C@@H]1C[C@]1(NC(=O)[C@@H]1C[C@@H](Oc2nc3cc(OC)ccc3nc2C(C)C)CN1C(=O)[C@@H](NC(=O)OC1CCCC1)C(C)(C)C)C(=O)NS(=O)(=O)C1(C)CC1 [Compound 12c] ... 48
C=C[C@@H]1C[C@]1(NC(=O)[C@@H]1C[C@@H](Oc2nc3cc(OC)ccc3nc2C(F)(F)F)CN1C(=O)[C@@H](NC(=O)OC1CCCC1)C(C)(C)C)C(=O)NS(=O)(=O)C1(C)CC1 [Compound 12e] ... 24
C=C[C@@H]1C[C@]1(NC(=O)[C@@H]1C[C@@H](Oc2nc3cc(OC)ccc3nc2CC)CN1C(=O)[C@@H](NC(=O)OC(C)(C)C)C(C)(C)C)C(=O)NS(=O)(=O)C1(C)CC1 [Compound 10a] ... 24
C=C[C@@H]1C[C@]1(NC(=O)[C@@H]1C[C@@H](Oc2nc3cc(OC)ccc3nc2C(C)C)CN1C(=O)[C@@H](NC(=O)OC(C)(C)C)C(C)(C)C)C(=O)NS(=O)(=O)C1(C)CC1 [Compound 10c] ... 41
C=C[C@@H]1C[C@]1(NC(=O)[C@@H]1C[C@@H](Oc2nc3cc(OC)ccc3nc2C)CN1C(=O)[C@@H](NC(=O)OC(C)(C)C)C(C)(C)C)C(=O)NS(=O)(=O)C1(C)CC1 [Compound 10b] ... 19

Please give Ki D168A (fold change) for each item listed below.
1. C=C[C@@H]1C[C@]1(NC(=O)[C@@H]1C[C@@H](Oc2nc3cc(OC)ccc3nc2Cl)CN1C(=O)[C@@H](NC(=O)OC(C)(C)C)C(C)(C)C)C(=O)NS(=O)(=O)C1CC1
2. C=C[C@@H]1C[C@]1(NC(=O)[C@@H]1C[C@@H](Oc2nc3cc(OC)ccc3nc2C(F)(F)F)CN1C(=O)[C@@H](NC(=O)OC(C)(C)C)C(C)(C)C)C(=O)NS(=O)(=O)C1CC1

1. 16
2. 8

----------
Tested on: HCV replicon R155K variant in Huh7 cells
Measurement Notes: microbe, parasite or virus in culture
Format: cell-based, Hepatitis C virus
Run Conditions: Table 4; relative to WT replicon
Endpoint Label: Replicon EC50 (Fold change) R155K

COc1ccc2nc(C(F)(F)F)c(O[C@@H]3C[C@H]4C(=O)N[C@]5(C(=O)NS(=O)(=O)C6CC6)C[C@H]5/C=C\CCCCC[C@H](NC(=O)OC(C)(C)C)C(=O)N4C3)nc2c1 [Compound 18d] ... (2) fold
COc1ccc2nc(C(F)(F)F)c(O[C@@H]3C[C@H]4C(=O)N[C@]5(C(=O)NS(=O)(=O)C6(C)CC6)C[C@H]5/C=C\CCCCC[C@H](NC(=O)OC5CCCC5)C(=O)N4C3)nc2c1 [Compound 23d] ... (2) fold

----------
Test system: HCV replicon A156T variant in Huh7 cells
Measurement Notes: microbe, parasite or virus in culture
Type: cell-based, Hepatitis C virus
Run Conditions: Hepatitis C virus, Huh-7, 96 h, read-out: Replicon EC50 (nM) A156T, Table 2; Huh7 cells, luciferase 96 h
Endpoint Label: EC50 (nM)
Numbers only, in nM.

COc1ccc2nc(C)c(O[C@@H]3C[C@H]4C(=O)N[C@]5(C(=O)NS(=O)(=O)C6(C)CC6)C[C@H]5/C=C\CCCCC[C@H](NC(=O)OC(C)(C)C)C(=O)N4C3)nc2c1 [Compound 19b] ... 1.57
CCc1nc2ccc(OC)cc2nc1O[C@@H]1C[C@H]2C(=O)N[C@]3(C(=O)NS(=O)(=O)C4CC4)C[C@H]3/C=C\CCCCC[C@H](NC(=O)OC(C)(C)C)C(=O)N2C1 ... 9.65

Give recorded EC50. CCc1nc2ccccc2nc1O[C@@H]1C[C@H]2C(=O)N[C@]3(C(=O)NS(=O)(=O)C4CC4)C[C@H]3/C=C\CCCCC[C@H](NC(=O)OC(C)(C)C)C(=O)N2C1 [Compound 18g]
10.6

----------
System: HCV replicon A156T variant in Huh7 cells
Measurement Notes: microbe, parasite or virus in culture
Format: cell-based, Hepatitis C virus
Run Conditions: Hepatitis C virus, Huh-7, 96 h, read-out: Replicon EC50 (nM) A156T, Table 2; Huh7 cells, luciferase 96 h
Provide the reported log10 of EC50 of each item.
Short version: log10 scale, EC50, nM.

Please give log10 of EC50 for each item listed below.
1. O=C(N[C@H]1CCCCC/C=C\[C@@H]2C[C@@]2(C(=O)NS(=O)(=O)C2CC2)NC(=O)[C@@H]2C[C@@H](Oc3nc4ccccc4nc3-c3cccs3)CN2C1=O)OC1CCCC1 [Compound 22f]
2. CC(C)(C)OC(=O)N[C@H]1CCCCC/C=C\[C@@H]2C[C@@]2(C(=O)NS(=O)(=O)C2CC2)NC(=O)[C@@H]2C[C@@H](Oc3nc4ccccc4nc3-c3cccs3)CN2C1=O [Compound 18f, reference compound]
3. CCc1nc2ccc(OC)cc2nc1O[C@@H]1C[C@H]2C(=O)N[C@]3(C(=O)NS(=O)(=O)C4(C)CC4)C[C@H]3/C=C\CCCCC[C@H](NC(=O)OC(C)(C)C)C(=O)N2C1 [Compound 19a]
4. COc1ccc2nc(C)c(O[C@@H]3C[C@H]4C(=O)N[C@]5(C(=O)NS(=O)(=O)C6(C)CC6)C[C@H]5/C=C\CCCCC[C@H](NC(=O)OC5CCCC5)C(=O)N4C3)nc2c1 [Compound 23b]
5. COc1ccc2nc(C)c(O[C@@H]3C[C@H]4C(=O)N[C@]5(C(=O)NS(=O)(=O)C6CC6)C[C@H]5/C=C\CCCCC[C@H](NC(=O)OC5CCCC5)C(=O)N4C3)nc2c1 [Compound 22b]
6. CCc1nc2ccc(OC)cc2nc1O[C@@H]1C[C@H]2C(=O)N[C@]3(C(=O)NS(=O)(=O)C4(C)CC4)C[C@H]3/C=C\CCCCC[C@H](NC(=O)OC3CCCC3)C(=O)N2C1 [Compound 23a]
7. COc1ccc2nc(C(F)(F)F)c(O[C@@H]3C[C@H]4C(=O)N[C@]5(C(=O)NS(=O)(=O)C6CC6)C[C@H]5/C=C\CCCCC[C@H](NC(=O)OC(C)(C)C)C(=O)N4C3)nc2c1 [Compound 18d]

[2.26, 2.41, 0.66, 0.60, 0.46, 1.03, 1.56]

Please give log10 of EC50 for each item listed below.
1. COc1ccc2nc(C(C)C)c(O[C@@H]3C[C@H]4C(=O)N[C@]5(C(=O)NS(=O)(=O)C6CC6)C[C@H]5/C=C\CCCCC[C@H](NC(=O)OC(C)(C)C)C(=O)N4C3)nc2c1 [Compound 18e]
2. CCc1nc2ccc(OC)cc2nc1O[C@@H]1C[C@H]2C(=O)N[C@]3(C(=O)NS(=O)(=O)C4CC4)C[C@H]3/C=C\CCCCC[C@H](NC(=O)OC3CCCC3)C(=O)N2C1 [Compound 22a]
3. COc1ccc2nc(C(F)(F)F)c(O[C@@H]3C[C@H]4C(=O)N[C@]5(C(=O)NS(=O)(=O)C6(C)CC6)C[C@H]5/C=C\CCCCC[C@H](NC(=O)OC5CCCC5)C(=O)N4C3)nc2c1 [Compound 23d]
4. COc1ccc2nc(Cl)c(O[C@@H]3C[C@H]4C(=O)N[C@]5(C(=O)NS(=O)(=O)C6(C)CC6)C[C@H]5/C=C\CCCCC[C@H](NC(=O)OC(C)(C)C)C(=O)N4C3)nc2c1 [Compound 19c]

1: 1.41; 2: 1.07; 3: 1.88; 4: 0.95

----------
Measured Target: wild-type GT1a NS3/4A protease (UniProt P27958)
Construct: Ki WT; other: wild-type HCV NS3/4A protease
Type: biochemical, Hepatitis C virus
Run Conditions: read-out: Ki WT; wild-type HCV NS3/4A protease
Endpoint Label: Ki (nM)
Answers are plain numbers, in nM.

Please give Ki for each item listed below.
1. C=C[C@@H]1C[C@]1(NC(=O)[C@@H]1C[C@@H](Oc2nc3cc(OC)ccc3nc2Cl)CN1C(=O)[C@@H](NC(=O)OC1CCCC1)C(C)(C)C)C(=O)NS(=O)(=O)C1CC1 [Compound 11d]
2. C=C[C@@H]1C[C@]1(NC(=O)[C@@H]1C[C@@H](Oc2nc3cc(OC)ccc3nc2Cl)CN1C(=O)[C@@H](NC(=O)OC1CCCC1)C(C)(C)C)C(=O)NS(=O)(=O)C1(C)CC1 [Compound 12d]
3. C=C[C@@H]1C[C@]1(NC(=O)[C@@H]1C[C@@H](Oc2nc3cc(OC)ccc3nc2C(F)(F)F)CN1C(=O)[C@@H](NC(=O)OC(C)(C)C)C(C)(C)C)C(=O)NS(=O)(=O)C1CC1 [Compound 9e]

1: 3.8; 2: 3.9; 3: 87
